test: Blood-brain distribution / LogBB; type: in vivo; conditions: Animal No. 1; male Wistar rats, bolus plus 60 min continuous i.v. infusion
Metric Name: LogBB

Before answering, review these 3 worked examples.
[[record]]
compound = "NCc1c(-c2ccc(Cl)cc2Cl)ncn1Cc1ccccn1 [Example 39b]"
obs_value = "−0.56"

[[record]]
compound = "NCc1c(-c2ccc(Cl)cc2Cl)ncn1Cc1ccsc1 [Example 130b]"
obs_value = "−0.65"

[[record]]
compound = "NCc1c(-c2ccc(Cl)cc2Cl)ncn1Cc1cccnc1 [Example 121b]"
obs_value = "−0.57"


Moving on to another compound below.
Which LogBB value is on record for NCc1c(-c2ccc(Cl)cc2Cl)ncn1Cc1ccccc1 [Example 24b] ? −0.36
